# System: Ames strain of B. anthracis
# Type: cell-based, Bacillus anthracis
Measure: zone of inhibition (mm)
Report the figure in mm without appending any unit label.

Solved cases (3 shown):
>  <Molecule>
O=[N+]([O-])[O-].[Ag+] [AgNO3, silver nitrate]

>  <zone of inhibition, mm>
16

$$$$
>  <Molecule>
NCc1ccc(S(N)(=O)=O)cc1 [mafenide acetate]

>  <zone of inhibition, mm>
34

$$$$
>  <Molecule>
C/C(=C\C(=O)OCCCCCCCCC(=O)O)C[C@@H]1OC[C@H](C[C@@H]2O[C@H]2[C@@H](C)[C@H](C)O)[C@@H](O)[C@H]1O

>  <zone of inhibition, mm>
35

$$$$

# evaluate next
Exam item: Tell me reported zone of inhibition for C=C(C)[C@H]1CC=C(C)CC1 , tested with Ames strain of B. anthracis.
Marked response: 21
